FYI, the data here is from patent US12209087B2.

targetSystem: full length AKT E17K (Homo sapiens, UniProt P31749, E17K)
Construct: host or cells: HEK-293 (ATCC CRL-1573)
Sequence (P31749 whole entry E17K): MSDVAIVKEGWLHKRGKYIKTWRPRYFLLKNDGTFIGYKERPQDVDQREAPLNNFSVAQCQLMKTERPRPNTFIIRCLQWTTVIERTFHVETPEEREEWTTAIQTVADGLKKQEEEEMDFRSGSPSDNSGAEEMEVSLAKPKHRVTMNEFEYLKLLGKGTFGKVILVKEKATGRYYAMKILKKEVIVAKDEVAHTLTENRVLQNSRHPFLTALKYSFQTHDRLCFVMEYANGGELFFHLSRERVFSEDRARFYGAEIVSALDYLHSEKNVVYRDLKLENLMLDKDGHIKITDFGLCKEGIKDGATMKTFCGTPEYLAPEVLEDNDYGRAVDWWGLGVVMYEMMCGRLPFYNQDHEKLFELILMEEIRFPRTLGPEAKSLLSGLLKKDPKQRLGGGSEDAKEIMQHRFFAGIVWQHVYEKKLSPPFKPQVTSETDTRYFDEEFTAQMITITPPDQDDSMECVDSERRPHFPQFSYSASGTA
methodDescription: NanoBRET Target Engagement (TE) Assay
Format: cell-based
testContext: competitive tracer displacement in living cells, read-out: AKT1 E17K IC50
quantityName: IC50

Give the reported value of IC50 for this record: N#Cc1cc(C(=O)NC2CCN(Cc3ccc(-n4c(-c5cccnc5N)nc5cc(-c6ccccc6)cnc54)cc3)CC2)ccn1
600 to 10000 nM

Give the reported value of IC50 for this record: N#Cc1cccc(C(=O)N2CCN(Cc3ccc(-n4c(-c5cccnc5N)nc5ccc(-c6ccccc6)nc54)cc3)CC2)n1
60 to 600 nM

Give the reported value of IC50 for this record: N#Cc1cccnc1C(=O)NC1CCN(Cc2ccc(-n3c(-c4cccnc4N)nc4cccnc43)cc2)CC1
600 to 10000 nM

Give the reported value of IC50 for this record: N#Cc1ncnc(N2CC3(CCN(Cc4ccc(-n5c(-c6cccnc6N)nc6ccc(-c7ccccc7)nc65)cc4)CC3)C2)n1
15 to 60 nM

Give the reported value of IC50 for this record: N#Cc1cnccc1C(=O)NCc1ccc(-n2c(-c3cccnc3N)nc3cccnc32)cc1
600 to 10000 nM

Give the reported value of IC50 for this record: N#Cc1nc2cc(C(=O)NC3CCN(Cc4ccc(-n5c(-c6cccnc6N)nc6ccc(-c7ccccc7)nc65)cc4)CC3)ccc2s1
< 15 nM

Give the reported value of IC50 for this record: N#Cc1ncnc(N2CCN(Cc3ccc(-n4c(-c5cccnc5N)nc5ccc(-c6ccccc6)nc54)cc3)CC23CC3)n1
< 15 nM

Give the reported value of IC50 for this record: N#Cc1nccc(N2CCN(Cc3ccc(-n4c(-c5cccnc5N)nc5ccc(-c6ccccc6)nc54)cc3)CC2)n1
< 15 nM

Give the reported value of IC50 for this record: N#Cc1nnccc1C(=O)N1CCN(Cc2ccc(-n3c(-c4cccnc4N)nc4ccc(-c5ccccc5)nc43)cc2)CC1
60 to 600 nM

Give the reported value of IC50 for this record: N#Cc1ccnc(C(=O)NC2CCN(Cc3ccc(-n4c(-c5cccnc5N)nc5ccc(-c6ccccc6)nc54)cc3)CC2)c1
60 to 600 nM
